Test system: surinam grass
experiment_summary: Test B pre/postemergence surinam grass
Type: in vivo, Brachiaria decumbens
test_parameters: Preemergence, Rate 250 g/ha; scale of 0 to 10 where 0 is no effect and 10 is complete control
Protocol: […] At the same time, these crop and weed species were also treated with postemergence applications of test chemicals formulated in the same manner. […] Treated plants and controls were maintained in a greenhouse for twelve to sixteen days, after which all species were compared to controls and visually evaluated. […]
# key: entry, value: Plant response rating, B. signalgrass
I only need the number, thanks.

# example entries with known answers
>  <molecule_smiles>
CC(C)N(C(=O)n1oc(=O)n(-c2ccccc2C(F)(F)F)c1=O)c1ccc(F)cc1

>  <Plant response rating, B. signalgrass>
0

$$$$
>  <molecule_smiles>
CC(C)N(C(=O)n1oc(=O)n(Cc2cccs2)c1=O)c1ccc(F)cc1F

>  <Plant response rating, B. signalgrass>
4

$$$$
>  <molecule_smiles>
COc1ccccc1-n1c(=O)on(C(=O)N(c2ccc(F)cc2F)C(C)C)c1=O

>  <Plant response rating, B. signalgrass>
6

$$$$
>  <molecule_smiles>
CCN(C(=O)n1oc(=O)n(-c2ccccc2OC)c1=O)C1CCCCC1

>  <Plant response rating, B. signalgrass>
0

$$$$
>  <molecule_smiles>
COc1ccccc1Cn1c(=O)on(C(=O)N(c2ccccc2)C(C)C)c1=O

>  <Plant response rating, B. signalgrass>
5

$$$$

Bench note: what Plant response rating, B. signalgrass did `CC(C)N(C(=O)n1oc(=O)n(-c2ccccc2)c1=O)c1ccc(F)cc1` show?
8

Another molecule: `COc1ccccc1-n1c(=O)on(C(=O)N(c2ccc(F)cc2)C(C)C)c1=O`
4
